Please go through the items and note down their Potency.
biological target: Glucocorticoid receptor (Homo sapiens) (UniProt P04150); assay: GR-EFC Redistribution (AID 451); conditions: CHO-K1 GR-EFC translocation, beta-gal luminescence, 2 h; also: potency is read from the fitted curve at half-maximal effect
Sequence (P04150 whole entry, looked up): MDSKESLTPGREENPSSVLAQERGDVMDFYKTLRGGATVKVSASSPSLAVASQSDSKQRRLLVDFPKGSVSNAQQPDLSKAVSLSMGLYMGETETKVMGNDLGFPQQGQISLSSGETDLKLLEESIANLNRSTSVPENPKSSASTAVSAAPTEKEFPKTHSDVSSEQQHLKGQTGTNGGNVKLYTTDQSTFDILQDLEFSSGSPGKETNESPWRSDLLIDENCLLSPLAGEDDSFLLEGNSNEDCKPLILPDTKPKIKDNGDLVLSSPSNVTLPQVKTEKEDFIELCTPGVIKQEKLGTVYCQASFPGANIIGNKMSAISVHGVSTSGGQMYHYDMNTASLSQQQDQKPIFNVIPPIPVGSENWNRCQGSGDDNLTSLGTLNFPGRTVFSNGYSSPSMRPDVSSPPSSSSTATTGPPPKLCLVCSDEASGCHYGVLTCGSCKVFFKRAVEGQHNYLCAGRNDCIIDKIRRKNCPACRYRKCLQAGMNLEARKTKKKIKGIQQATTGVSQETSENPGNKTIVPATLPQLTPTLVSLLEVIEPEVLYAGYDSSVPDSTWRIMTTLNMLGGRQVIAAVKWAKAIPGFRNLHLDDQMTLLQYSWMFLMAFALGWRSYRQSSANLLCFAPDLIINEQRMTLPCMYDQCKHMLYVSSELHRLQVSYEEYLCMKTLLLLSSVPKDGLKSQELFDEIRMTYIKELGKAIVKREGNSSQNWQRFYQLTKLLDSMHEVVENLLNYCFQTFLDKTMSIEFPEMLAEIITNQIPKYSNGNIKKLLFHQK
Activity calls are given as the source filed them. Calls follow the shape of the full dose curve.

For orientation, consider the following solved cases.
Cc1cc[c]([Sb]2[O][C@H]([C@H](O)[C@H](O)C(=O)O)[C@@H](CO)[O]2)cc1 :: > 9.22 µM (inactive)
COc1cc(C[C@H](C)N)c(OC)cc1I :: > 46 µM (inactive)
CCOC(=O)c1ccc2[nH]c(-c3ccc(S(=O)(=O)F)cc3)cc(=O)c2c1 :: > 9.22 µM (inactive)
O=[N+]([O-])c1cc(-c2ccc([As](=O)(O)O)cc2)ccc1[As](=O)(O)O :: > 9.22 µM (inactive)
O=C(CCN1CC2CCC(CC2)C1)c1cccs1 :: > 9.22 µM (inactive)

Hi, could you look up Potency for each item in my list?
1. COc1ccc2c(c1O)-c1cccc3c1[C@H](C2)N(C)CC3
2. C[C@H](Br)C(=O)N[C@H](CO)C(=O)O
3. Cc1c([C@@H](C)[C@H]2NC[C@H](C)C[C@@H]2O)ccc2c1C[C@@H]1[C@H]2CC=C2C[C@@H](O)CC[C@@]21C

1: > 46 µM (inactive); 2: > 9.22 µM (inactive); 3: > 9.22 µM (inactive)

Hi, could you look up Potency for each item in my list?
1. C=C[C@@H]1CN2CC[C@H]1C[C@H]2[C@H](O)c1ccnc2ccccc12
2. C[N+]1(C)C2CC(OC(=O)C(CO)c3ccccc3)CC1[C@@H]1O[C@H]21 (stereo not given in full)

1: > 9.22 µM (inactive); 2: > 46 µM (inactive)

###

experiment: Cell Viability - LYMP2-014 (AID 983); settings: LYMP2-014 lymphoblastoid cells, viability qHTS; series mostly up to 92.2 µM;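 also: cells exposed to compound for 24 h at 37 °C; plate controls were DMSO only for no effect and 92 µM tetraoctylammonium bromide for full effect; nearly all actives have a fitted effect of over 50% in size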
Records with an inconclusive call do not appear. Active and inactive are the calls of the source. Calls come from the whole dose curve; as a rule, active = well fitted cell-killing curve with a large enough effect; inconclusive = small, poorly fitted or top-dose-only effect; inactive = flat fitted curve, though single readings scatter.
Write down the outcome that applies. Available outcomes: active, inactive

CCCCC(=O)Cl :: inactive
CC1CC(=O)O1 (stereo not drawn) :: inactive
Clc1ccccc1 :: inactive
ClCCBr :: inactive
Nc1cc(Cl)cc(C(=O)O)c1Cl :: inactive

Please state the recorded outcome for this compound: Nc1ccc(Cc2ccc(N)cc2)cc1
inactive

Please state the recorded outcome for this compound: CC(C)(C)c1ccccc1O
inactive

###

molecular target: Cytochrome P450 1A2 (Homo sapiens) (UniProt P05177); test: p450-cyp1a2 (AID 410); settings: recombinant CYP1A2, luciferin-ME demethylation, luminescence; series mostly up to 11.4 µM;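 also: -100% = full effect of reference inhibitor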
Sequence (P05177 whole entry, looked up): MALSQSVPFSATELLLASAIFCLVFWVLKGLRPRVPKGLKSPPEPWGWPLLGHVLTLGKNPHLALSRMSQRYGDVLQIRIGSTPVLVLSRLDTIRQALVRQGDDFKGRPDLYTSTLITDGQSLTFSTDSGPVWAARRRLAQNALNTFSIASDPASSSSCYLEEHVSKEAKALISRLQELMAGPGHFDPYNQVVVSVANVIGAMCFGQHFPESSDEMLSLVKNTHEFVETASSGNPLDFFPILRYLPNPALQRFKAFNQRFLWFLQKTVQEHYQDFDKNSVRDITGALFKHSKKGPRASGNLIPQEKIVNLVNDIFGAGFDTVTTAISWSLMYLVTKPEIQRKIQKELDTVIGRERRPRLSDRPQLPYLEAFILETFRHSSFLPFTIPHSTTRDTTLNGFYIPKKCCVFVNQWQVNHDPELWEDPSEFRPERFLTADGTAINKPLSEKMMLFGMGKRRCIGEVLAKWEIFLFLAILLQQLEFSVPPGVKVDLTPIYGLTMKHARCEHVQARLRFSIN
Records with an inconclusive call do not appear. Active and inactive are the calls of the source. The call rests on the fitted dose curve.
metric: activity change, negative = inhibition

For orientation, consider the following solved cases.
C=C(C)c1ccccc1 (tested in a mixture with another compound) :: -19.6% [at 2.29 µM] (inactive)
NNc1c(C(N)=O)c2c(N)ncnc2n1[C@@H]1O[C@H](CO)[C@@H](O)[C@@H]1O :: -11.2% [at 2.29 µM] (inactive)
N=C(N)n1cc(/C=N\N=C(N)N)cn1 :: 7.8% [at 2.29 µM] (inactive)
C[C@]12CC[C@@H]3[C@H](CCC4=CC(=O)CC[C@]43C)[C@]1(O)CC[C@@]2(O)C(=O)CO :: 4.8% [at 2.29 µM] (inactive)
O=C(O)CS(=O)(=O)C(c1ccccc1)c1ccccc1 :: -15.7% [at 2.29 µM] (inactive)
COc1ccc(C(=O)O[C@H]2CC[C@@]3(C)[C@H]4CC[C@H]5[C@]3(C[C@]3(O)[C@H]6CN7C[C@H](C)CC[C@H]7[C@](C)(O)[C@]6(O)[C@H](O)C[C@]53O)O[C@]24O)cc1OC :: -20.9% [at 2.29 µM] (inactive)
O=C(O)/C=C\c1ccc[c]([Sb](=[O])([OH])[OH])c1 :: -9.5% [at 2.29 µM] (inactive)
O=C(O)[C@H]1[O][Sb][O][C@@H](C(=O)O)C1O (stereo not given in full) :: -15% [at 2.29 µM] (inactive)
CN(C)CS/C(N)=N/[C@H](O)C(Cl)(Cl)Cl :: 4.1% [at 2.29 µM] (inactive)

Any idea what activity change, negative = inhibition was measured for CCC1(CCSC(=N)N)C(=O)NC(=O)NC1=O ?
-10.9% [at 2.29 µM] (inactive)

###

Please go through the items and note down their activity, negative = inhibition.
Assay: Stat Signaling Pathway (AID 446);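 also: ME-180 cervical cancer cells given 40 pM IL-6 alongside compound; SIE-controlled beta-lactamase reporter measured as 460/530 nm FRET emission ratio; % is scaled to controls: 0 for no effect and ±100 for the full control effect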
Details: ME-180 (cervical carcinoma) SIE beta-lactamase reporter, IL-6 stimulated, 5 h; at 7.69 µM (top of the series) unless noted
Method: NCGC Assay Overview: The IL-6/STAT signaling pathway was assayed in ME-180 cervical carcinoma cells by a beta-lactamase reporter gene controlled by a STAT Inducible Element (SIE). This reporter is induced by IL-6 at 40 pM AC50 and inhibited by the pan JAK inhibitor, 2-(1,1-Dimethylethyl)-9-fluoro-3,6-dihydro-7H-benz[h]-imidaz[4,5-f]isoquinolin-7-one, at approximately 10 nM AC50. Plated cells were incubated overnight and on the following day, stimulated with 40 pM IL-6 for 5 hrs. […]
Inconclusive results are not listed. Active and inactive are the calls of the source. Calls follow the shape of the dose curve; as a rule, active = well fitted curve in either direction with a large enough effect (not every such curve was filed as active); inconclusive = small, poorly fitted or top-dose-only effect, or another doubt; inactive = flat fitted curve, though single readings scatter.

N[C@H](Cn1ccc(=O)[nH]c1=O)C(=O)O :: 4.92% [at 38 µM] (inactive)
c1ccc(CCN2CCOCC2)nc1 :: 4.66% (inactive)
CCNCCC1(CC)C(=O)NC(=O)NC1=O :: 2.13% (inactive)
N[C@H](Cc1ccc2oc3cc(=O)c4ccccc4c-3nc2c1)C(=O)O :: 7.75% (inactive)
CC(=O)O/C(=C1/C[C@H]2[C@@H]3CC=C4C[C@@H](OC(C)=O)CC[C@]4(C)[C@@H]3CC[C@]2(C)C1=O)C(F)(F)F :: -16.9% (inactive)

Could you now consider this next compound?
Any idea what activity, negative = inhibition was measured for O=C(O)[C@H](Cc1cnc[nH]1)N1C(=O)c2ccccc2C1=O ?
4.43% (inactive)

###

biological target: Glucocorticoid receptor (Homo sapiens) (UniProt P04150); experiment: qHTS assay for small molecule agonists of glucocorticoid receptor signaling (AID 588532); conditions: HeLa MMTV-bla, beta-lactamase ratio, agonist, 18 h; active compounds read high; percent of dexamethasone control, DMSO zero;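 also: 100% = dexamethasone at 0.1 µM and 0% = DMSO only wells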
Results filed as inconclusive are left out.
metric: activation (%)
Answers are plain numbers, in %.

CC(=O)CCC(C)=O :: -5.45

Hi, could you look up activation for each item in my list?
1. CN1CSC(=S)N(C)C1
2. COC(=O)Nc1nc2ccccc2[nH]1
3. CCCCC(CC)COC(=O)c1ccc(C(=O)OCC(CC)CCCC)c(C(=O)OCC(CC)CCCC)c1 (stereo not drawn)
4. O=[N+]([O-])CCO

1: 6.16; 2: -11.7; 3: -5.8; 4: -6.62

Hi, could you look up activation for each item in my list?
1. CCCCCCCCCCCOC(=O)c1ccccc1C(=O)OCCCCCCCCCCC
2. Nc1cc(Cl)ccc1O
3. Cc1ccc([N+](=O)[O-])cc1
4. Clc1ccccc1
5. CCOC(=O)CC(SP(=O)(OC)OC)C(=O)OCC (stereo not drawn)

3.4
3.82
-2.83
-4.89
2.95

###

assay: Cell Viability - LYMP2-012 (AID 982); details: LYMP2-012 lymphoblastoid cell viability qHTS; series mostly up to 92.2 µM;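 also: cellular ATP by luciferase luminescence where a drop means cytotoxicity; cells exposed to compound for one day before reading; nearly all actives have a fitted effect of over 55% in size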
Inconclusive results are not listed. The source made the active and inactive calls. Calls come from the whole dose curve; as a rule, active = well fitted cell-killing curve with a large enough effect; inconclusive = small, poorly fitted or top-dose-only effect; inactive = flat fitted curve, though single readings scatter.
Write down the outcome that applies. Available outcomes: active, inactive

Some solved cases for reference:
O=[N+]([O-])c1cccc2c([N+](=O)[O-])cccc12 :: inactive
COP(=S)(OC)SCn1nnc2ccccc2c1=O :: inactive
O=[N+]([O-])c1cccc(CCl)c1 :: inactive
C/C=C/C=O :: inactive

Please state the recorded outcome for this molecule: BrCC(Br)(Br)Br
active

Please state the recorded outcome for this molecule: Nc1cc(Cl)ccc1Cl
inactive

Please state the recorded outcome for this molecule: Cc1cnc[nH]1
inactive

Please state the recorded outcome for this molecule: O=[N+]([O-])c1ccc(O)c([N+](=O)[O-])c1
inactive

Please state the recorded outcome for this molecule: CC(=O)NNc1ccccc1
inactive

###

Please go through the items and note down their activation.
target: Bile acid receptor (Homo sapiens) (UniProt Q96RI1); assay: qHTS assay for small molecule agonists of farnesoid X receptor signaling (AID 588527); details: HEK293T FXR-UAS-bla, beta-lactamase ratio, 16 h; active compounds read high;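 also: 0% = vehicle basal and 100% = reference agonist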
Sequence (Q96RI1 whole entry, looked up): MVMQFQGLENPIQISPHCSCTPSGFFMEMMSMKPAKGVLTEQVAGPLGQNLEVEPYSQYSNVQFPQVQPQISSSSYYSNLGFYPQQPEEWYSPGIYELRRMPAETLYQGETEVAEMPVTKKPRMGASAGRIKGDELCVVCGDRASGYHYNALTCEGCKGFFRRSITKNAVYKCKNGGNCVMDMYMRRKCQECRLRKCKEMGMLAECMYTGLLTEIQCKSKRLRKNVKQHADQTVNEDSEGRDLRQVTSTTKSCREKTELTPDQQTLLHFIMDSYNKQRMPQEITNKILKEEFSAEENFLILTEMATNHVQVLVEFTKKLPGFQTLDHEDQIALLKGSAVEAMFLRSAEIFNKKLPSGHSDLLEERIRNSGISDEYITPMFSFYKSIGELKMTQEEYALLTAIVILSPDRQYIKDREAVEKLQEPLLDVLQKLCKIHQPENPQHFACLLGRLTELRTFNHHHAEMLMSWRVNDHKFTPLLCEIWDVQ
Inconclusive results are not listed. The source made the active and inactive calls. Calls come from the whole dose curve.

For orientation, consider the following solved cases.
CC1CC(=O)O1 (stereo not given) :: -1.6% (inactive)
CC(C)(Cl)[N+](=O)[O-] :: 0.224% (inactive)
C=CCCC#N :: -0.315% (inactive)
Oc1c(Cl)c(Cl)cc(Cl)c1Cl :: 3.3% (inactive)
O=C(O)c1cccc(Cl)c1 :: 2.01% (inactive)
ClCCOCCCl :: -1.24% (inactive)

Hi, could you look up activation for each item in my list?
1. CCCCCC[N+](=O)[O-]
2. CN(C)c1ccc(N=Nc2ccccc2)cc1

1: 1.12% (inactive); 2: -4.32% (inactive)

Hi, could you look up activation for each item in my list?
1. Nc1c(Br)cc([N+](=O)[O-])cc1[N+](=O)[O-]
2. O=S(=O)(Cl)c1ccccc1
3. O=[N+]([O-])c1cccc(O)c1
4. CCC/C=N/O
5. O=C(O)C(Br)Br
6. CCOP(=S)(OCC)Oc1nc(Cl)c(Cl)cc1Cl
7. CCCCCc1cc(O)cc(O)c1
8. C=C(Cl)CSC(=S)N(CC)CC

1: 0.276% (inactive); 2: 1.82% (inactive); 3: -2.84% (inactive); 4: 0.311% (inactive); 5: -1.44% (inactive); 6: -1.55% (inactive) [middle of 4 runs]; 7: 2.26% (inactive); 8: 1.19% (inactive)

Hi, could you look up activation for each item in my list?
1. Oc1ccc(Cl)c(Cl)c1Cl
2. CN(C)N=O
3. CCC#N

["0.826% (inactive)", "-0.99% (inactive)", "-0.411% (inactive)"]

Hi, could you look up activation for each item in my list?
1. ClP(Cl)(Cl)(Cl)Cl
2. CCCN(CCC)c1c([N+](=O)[O-])cc(C(F)(F)F)cc1[N+](=O)[O-]
3. CCC(Cl)[N+](=O)[O-] (stereo not given)
4. ClC(Cl)C(Cl)Cl
5. CCC[N+](=O)[O-]
6. OCCCCO
7. C=CC(=O)OC
8. C=CCBr

-2.17% (inactive)
1.13% (inactive)
-1.12% (inactive)
-2.53% (inactive)
2.98% (inactive)
-2.93% (inactive)
1.11% (inactive)
-2.82% (inactive)
